# Tested on: NCI-H322M lung
# assayNotes: NCI-60 one-dose screen, 48 h
# measurementParameters: 10 µM unless noted
The panel holds about 83,000 compounds, 20% with a hit somewhere; the sample as a whole holds those more often. The source made the active and inactive calls. How the source made its calls: active means growth percent below 10; inactive means the rest.
Just give me one of these, please: True for active, False for inactive

Q: Record lookup: outcome of this test for `FC(F)(F)c1cc(-c2nnc3n2N=C(N2CCCC2)CS3)cc(C(F)(F)F)c1` ?
Result: False

Q: // return assay outcome for `CCCCCc1c(C)[nH]c(/C=C2\N=C(c3ccc[nH]3)C=C2Oc2ccc(Cl)cc2)c1C`
Result: False

Q: Assay outcome for `C/C=C(/C(=C/C)c1ccc(O)cc1)c1ccc(O)cc1` : what was it?
Result: False
